# test: qHTS of pediatric cancer cell lines to identify multiple opportunities for drug repurposing: Primary screen for Rh18 cells (AID 1347102); further: nearly all actives have a fitted effect of over 65% in size
# assayContext: Rh18 rhabdomyosarcoma viability, CellTiter-Glo luminescence, 48 h; series mostly up to 46 µM
Inconclusive results are not listed. Calls of active or inactive are those of the source. The call rests on the fitted dose curve; in most records, active means well fitted cell-killing curve with a large enough effect; inconclusive means small, poorly fitted or top-dose-only effect; inactive means flat fitted curve, though single readings scatter.
Outcome codes: active, inactive

- molecule: "O=C(O)CNC(=O)c1ccccc1"
  assignedLabel: "inactive"
- molecule: "OC[C@@H](O)[C@@H](O[C@@H]1O[C@H](CO)[C@H](O)[C@H](O)[C@H]1O)[C@H](O)[C@@H](O)CO"
  assignedLabel: "inactive"
- molecule: "CC1(C)O[C@@H]2C[C@H]3[C@@H]4C[C@H](F)C5=CC(=O)CC[C@]5(C)[C@H]4[C@@H](O)C[C@]3(C)[C@]2(C(=O)CO)O1"
  assignedLabel: "inactive"
- molecule: "Cc1ccc(C(=O)C(C)CN2CCCCC2)cc1 (configuration not stated)"
  assignedLabel: "inactive"
- molecule: "CN(C)CCCOc1nn(Cc2ccccc2)c2ccccc12"
  assignedLabel: "inactive"
- molecule: "CCCCCCCCCCCCCCCC[N+](C)(C)CC"
  assignedLabel: "active"
- molecule: "CCCCC1=NC2(CCCC2)C(=O)N1Cc1ccc(-c2ccccc2-c2nn[nH]n2)cc1"
  assignedLabel: "inactive"
- molecule: "CC[C@@H](CO)NCCN[C@@H](CC)CO"
  assignedLabel: "inactive"
- molecule: "C/C=C/c1ccc(OC)cc1"
  assignedLabel: "inactive"
- molecule: "O=C(Nc1ccc(Oc2ccc(Cl)cc2)c(Cl)c1)c1cc(I)cc(I)c1O"
  assignedLabel: "inactive"
- molecule: "NCCCC[C@H](N[C@@H](CCc1ccccc1)C(=O)O)C(=O)N1CCC[C@H]1C(=O)O"
  assignedLabel: "inactive"
- molecule: "Cc1c(N(C)CS(=O)(=O)O)c(=O)n(-c2ccccc2)n1C"
  assignedLabel: "inactive"
- molecule: "O=c1ccc2ccccc2o1"
  assignedLabel: "inactive"
- molecule: "Nc1ccc(C(=O)Nc2ccccc2N)cc1"
  assignedLabel: "active"
- molecule: "CCOC(=O)COc1ccc2c(C)c(CCN(CC)CC)c(=O)oc2c1Cl"
  assignedLabel: "inactive"
- molecule: "Cc1cccc(C)c1NC(=O)CN1CCN(CCCC(c2ccc(F)cc2)c2ccc(F)cc2)CC1"
  assignedLabel: "inactive"
- molecule: "C[n+]1c2cc(N)ccc2cc2ccc(N)cc21 (tested in a mixture with another compound)"
  assignedLabel: "active"
- molecule: "CC1=C(C(=O)O)N2C(=O)[C@@H](NC(=O)[C@H](N)c3ccc(O)cc3)[C@H]2SC1"
  assignedLabel: "inactive"
- molecule: "COC(=O)CCc1ccc(OCC(O)CNC(C)C)cc1 (configuration not stated)"
  assignedLabel: "inactive"
- molecule: "CN1C(CCl)Nc2cc(Cl)c(S(N)(=O)=O)cc2S1(=O)=O (configuration not stated)"
  assignedLabel: "inactive"
- molecule: "O=c1[nH]c(=O)n([C@H]2C[C@H](O)[C@@H](CO)O2)cc1C(F)(F)F"
  assignedLabel: "inactive"
- molecule: "C[C@H]1C[C@H]2[C@@H]3CCC4=CC(=O)C=C[C@]4(C)[C@@]3(Cl)[C@@H](O)C[C@]2(C)[C@@]1(O)C(=O)CO"
  assignedLabel: "inactive"
- molecule: "CN(C)CC/C=C1/c2ccccc2COc2ccc(CC(=O)O)cc21"
  assignedLabel: "inactive"
- molecule: "Oc1cc(O)c2c(c1)O[C@H](c1ccc(O)c(O)c1)[C@H](O)C2"
  assignedLabel: "inactive"
- molecule: "Oc1c(I)cc(I)c2cccnc12"
  assignedLabel: "inactive"
- molecule: "CCN(CC)CCOc1ccc(C(O)(Cc2ccc(Cl)cc2)c2ccc(C)cc2)cc1 (configuration not stated)"
  assignedLabel: "active"
- molecule: "CC(Cc1cccc(C(F)(F)F)c1)NCCOC(=O)c1ccccc1 (configuration not stated)"
  assignedLabel: "inactive"
- molecule: "Cc1cc(O)c(C(C)C)cc1Cl"
  assignedLabel: "inactive"
- molecule: "CN(C)C(=S)SC(=S)N(C)C"
  assignedLabel: "active"
- molecule: "CC(=O)OCC(=O)[C@@]12OC(C)(C)O[C@@H]1C[C@H]1[C@@H]3C[C@H](F)C4=CC(=O)C=C[C@]4(C)[C@@]3(F)[C@@H](O)C[C@@]12C"
  assignedLabel: "inactive"
- molecule: "CC1(C)O[C@@H]2C[C@H]3[C@@H]4C[C@H](F)C5=CC(=O)C=C[C@]5(C)[C@H]4[C@@H](O)C[C@]3(C)[C@]2(C(=O)CO)O1"
  assignedLabel: "inactive"
- molecule: "CC(C)COC(=O)c1ccc(N)cc1"
  assignedLabel: "inactive"
- molecule: "NCCC(O)(P(=O)(O)O)P(=O)(O)O"
  assignedLabel: "inactive"
- molecule: "C[C@H](O)C(=O)Nc1c(I)c(C(=O)NC(CO)CO)c(I)c(C(=O)NC(CO)CO)c1I"
  assignedLabel: "inactive"
- molecule: "CC(C)(C)NC(=O)[C@@H]1CN(Cc2cccnc2)CCN1C[C@@H](O)C[C@@H](Cc1ccccc1)C(=O)N[C@H]1c2ccccc2C[C@H]1O"
  assignedLabel: "inactive"
- molecule: "c1ccc(-c2ccc(C(c3ccccc3)n3ccnc3)cc2)cc1 (configuration not stated)"
  assignedLabel: "inactive"
- molecule: "Nc1ccn([C@@H]2O[C@H](CO)[C@@H](O)C2(F)F)c(=O)n1"
  assignedLabel: "inactive"
- molecule: "Oc1c(Cl)cc(Cl)cc1Sc1cc(Cl)cc(Cl)c1O"
  assignedLabel: "inactive"
- molecule: "Nc1ccc(C(=O)O)cc1"
  assignedLabel: "inactive"
- molecule: "COC(=O)[C@@H]1CC2=CC(=O)CC[C@]2(C)[C@@]23O[C@@H]2C[C@@]2(C)[C@@H](CC[C@@]24CCC(=O)O4)[C@H]13"
  assignedLabel: "inactive"
- molecule: "O=C1c2ccccc2C(=O)C1c1ccccc1"
  assignedLabel: "inactive"
- molecule: "COc1cc(C(=S)N2CCOCC2)cc(OC)c1OC"
  assignedLabel: "inactive"

###

# Tested on: MKL-2
# test: qHTS assay to identify novel small-molecules to repurpose for Merkel cell carcinoma treatment (AID 1296009); further: nearly all actives have a fitted effect of over 60% in size
# assayContext: MCC and control cell lines, CellTiter-Glo viability, 72 h; series mostly up to 46 µM
Records with an inconclusive call do not appear. Active and inactive are the calls of the source. The call rests on the fitted dose curve; in most records, active means well fitted inhibition curve with a large enough effect; inconclusive means small, poorly fitted or top-dose-only effect; inactive means flat fitted curve, though single readings scatter.
Outcome codes: yes for active, no for inactive

- compound: "COC1=CC(=O)C[C@@H](C)[C@]12Oc1c(Cl)c(OC)cc(OC)c1C2=O"
  assignedLabel: "no"
- compound: "Oc1ccc(O)cc1"
  assignedLabel: "yes"
- compound: "Cc1ncc(CSSCc2cnc(C)c(O)c2CO)c(CO)c1O"
  assignedLabel: "no"
- compound: "CCC(C(=O)OCCN(CC)CC)c1ccccc1 (stereo not given)"
  assignedLabel: "no"
- compound: "CC1(C)O[C@@H]2C[C@H]3[C@@H]4CCC5=CC(=O)CC[C@]5(C)[C@@]4(F)[C@@H](O)C[C@]3(C)[C@]2(C(=O)CCl)O1"
  assignedLabel: "no"
- compound: "CC(=O)c1ccc2c(c1)N(CCCN1CCC(CCO)CC1)c1ccccc1S2"
  assignedLabel: "yes"
- compound: "CC(C)=CCC1C(=O)N(c2ccccc2)N(c2ccccc2)C1=O"
  assignedLabel: "yes"
- compound: "COc1cc(-c2ccc(=O)[nH]n2)ccc1OC(F)F"
  assignedLabel: "no"
- compound: "CO/N=C1\\CN(c2nc3c(cc2F)c(=O)c(C(=O)O)cn3C2CC2)CC1CN (stereo not given)"
  assignedLabel: "no"
- compound: "COc1cccc2c1C(=O)c1c(O)c3c(c(O)c1C2=O)C[C@@](O)(C(C)=O)C[C@@H]3O[C@H]1C[C@H](N)[C@H](O)[C@H](C)O1"
  assignedLabel: "yes"
- compound: "NC(=O)C(=O)N/N=C/c1ccc([N+](=O)[O-])o1"
  assignedLabel: "yes"
- compound: "COc1c2occc2c(OC)c2c(=O)cc(C)oc12"
  assignedLabel: "no"
- compound: "CC(C)n1nc(-c2cc3cc(O)ccc3[nH]2)c2c(N)ncnc21"
  assignedLabel: "yes"
- compound: "N[C@H](Cc1c[nH]c2ccccc12)C(=O)O"
  assignedLabel: "no"
- compound: "Cc1onc(-c2c(Cl)cccc2Cl)c1C(=O)N[C@@H]1C(=O)N2[C@@H]1SC(C)(C)[C@@H]2C(=O)O"
  assignedLabel: "no"

###

# test: Cell Viability - H-4-II-E (AID 543);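 further: cells exposed to compound for 40 hours; nearly all actives have a fitted effect of over 35% in size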; further: potency means the concentration at half of the fitted maximal effect
# assayContext: H-4-II-E rat hepatoma viability; series mostly up to 92.2 µM
Inconclusive results are not listed. Activity calls are given as the source filed them. The call rests on the fitted dose curve; in most records, active means well fitted cell-killing curve with a large enough effect; inconclusive means small, poorly fitted or top-dose-only effect; inactive means flat fitted curve, though single readings scatter.

- compound: "O=C1OC(c2ccc(O)cc2)(c2ccc(O)cc2)c2ccccc21"
  Potency: "inactive"
- compound: "Oc1c(Cl)cc(Cl)cc1Sc1cc(Cl)cc(Cl)c1O"
  Potency: "31.6 µM (active)"
- compound: "Nc1ccc(C(=O)O)cc1"
  Potency: "inactive"
- compound: "Oc1ccc(Cl)cc1Sc1cc(Cl)ccc1O"
  Potency: "39.8 µM (active)"
- compound: "CC(=O)O[C@]1(C(C)=O)CC[C@H]2[C@@H]3C[C@H](C)C4=CC(=O)CC[C@]4(C)[C@H]3CC[C@@]21C"
  Potency: "50.1 µM (active)"
- compound: "CC(O)C(=O)O (stereo unspecified)"
  Potency: "inactive"

Source of measurements: PubChem BioAssay (NCATS)
